- target_or_test_system: AFP158 homologous peptides/HLA-A*02:01 complexes
- protocol_details: SPR, crude scFv captured, complexes as analyte
# Lookup of reported SPR response keyed by entry

binder	SPR response
AS170036 VL1VH1-VLH98F (scFv) scFv: QSALTQPRSVSGSPGQSVTISCAGTSSDVGSENYVSWYQQHPGKAPKLMIYQVNKRASGVPDRFSGSKSGNTASLTISGLQAEDEADYYCASYRSSDFNIVFGGGTKLTVLGGGGSGGGGSGGGGSEVQLVESGGGLVQPGGSLRLSCAASGFTFSSYAMSWVRQAPGKGLEWVSTINSGTGSPYYADSVKGRFTISRDNSKNTLYLQMNSLRAEDTAVYYCAKNFFDGSWFLGPPAMDYWGQGTLVTVSSHHHHHH	< 3.5 RU
AS170036 VL1VH1-VHG108S (scFv) scFv: QSALTQPRSVSGSPGQSVTISCAGTSSDVGSENYVSWYQQHPGKAPKLMIYQVNKRASGVPDRFSGSKSGNTASLTISGLQAEDEADYYCASYRSSDHNIVFGGGTKLTVLGGGGSGGGGSGGGGSEVQLVESGGGLVQPGGSLRLSCAASGFTFSSYAMSWVRQAPGKGLEWVSTINSGTGSPYYADSVKGRFTISRDNSKNTLYLQMNSLRAEDTAVYYCAKNFFDGSWFLSPPAMDYWGQGTLVTVSSHHHHHH	< 3.5 RU

Let us examine a further case.
SPR response for AS170036 VL1VH1-VHS57K (scFv) scFv: QSALTQPRSVSGSPGQSVTISCAGTSSDVGSENYVSWYQQHPGKAPKLMIYQVNKRASGVPDRFSGSKSGNTASLTISGLQAEDEADYYCASYRSSDHNIVFGGGTKLTVLGGGGSGGGGSGGGGSEVQLVESGGGLVQPGGSLRLSCAASGFTFSSYAMSWVRQAPGKGLEWVSTINSGTGKPYYADSVKGRFTISRDNSKNTLYLQMNSLRAEDTAVYYCAKNFFDGSWFLGPPAMDYWGQGTLVTVSSHHHHHH ?
< 3.5 RU
